Tested on: SK-MEL-28 melanoma
Assay: NCI tumour cell line growth inhibition, 48 h
MEASURED PARAMETER: TGI

See these solved cases before continuing.
>>> val("CCN(CC)CC(C(=O)Nc1c(C)cccc1C)/C(C)=N/NC(N)=S (stereo unspecified)")
"> 100 µM"
>>> val("CCC1OC(=O)C(C)C(OC2CC(C)(O)C(O)C(C)O2)C(C)C(O)C(C)(O)CC(C)C(=O)C(C)C(O)C1C (stereo unspecified)")
"> 300 µM"
>>> val("O=c1n(CCO)nc2n1CCCN2")
"> 100 µM"
>>> val("N#C/C(=C/NC(=S)Nc1ccc(S(N)(=O)=O)cc1)C(N)=O")
"> 100 µM"
>>> val("O=C(CN1C(=O)c2ccccc2C1=O)NC1(C(=O)O)CCCC1")
"> 100 µM"

*Q* Quick one: TGI for CCCCCCCCCCCCCCCCCc1nc(C#N)c(N)o1 ?
*A* > 100 µM

*Q* # iterate: CC(=S)NC1C(Oc2ccc3c(C)cc(=O)oc3c2)OC(CO)C(O)C1O (stereo unspecified)
*A* > 100 µM

*Q* Check CC(C)OP(=O)(OC(C)C)c1ncn(-c2ccc([N+](=O)[O-])cc2)n1 too.
*A* > 100 µM

*Q* # iterate: Cc1cc(N2CCOCC2)nc(N(CCNc2ccnc3cc(Cl)ccc23)Cc2cccs2)n1
*A* 3.7 µM

*Q* Input COc1ccc2nccc(C3OC(=O)N4CCC(=O)CC34)c2c1 (stereo unspecified)
*A* > 100 µM

*Q* Entry to check: Cn1c([N+](=O)[O-])cnc1/C=C1\Oc2ccc(Cl)cc2C1=O
*A* 5.14 µM

Source listed as PubChem BioAssay (NCI).
